test-system: HLA-DR molecule, DRB1*0701 (human)
test-description: ELISA
Where no end group is shown, it is not given here.
metric: pIC50
Numbers only, as −log10 of the molar value.

## Task Sample QATFMVFQALAQYQKDAP (also: amino and carboxyl ends blocked) [C3d_(269–286)] — what was its pIC50?
## Result 5.61
